system_name: T1, Nluc-IL23R fusion protein (human, UniProt Q5VWK5 22-629)
T1 construct: range 22-629; expressed with a secretion signal in HEK293 cells; used as crude membrane preparation; also called hIL-23R; human IL-23R; not shown: Nanoluc protein from the expression plasmid N1371 (Promega), N-terminal of IL-23R
T1 sequence (looked up): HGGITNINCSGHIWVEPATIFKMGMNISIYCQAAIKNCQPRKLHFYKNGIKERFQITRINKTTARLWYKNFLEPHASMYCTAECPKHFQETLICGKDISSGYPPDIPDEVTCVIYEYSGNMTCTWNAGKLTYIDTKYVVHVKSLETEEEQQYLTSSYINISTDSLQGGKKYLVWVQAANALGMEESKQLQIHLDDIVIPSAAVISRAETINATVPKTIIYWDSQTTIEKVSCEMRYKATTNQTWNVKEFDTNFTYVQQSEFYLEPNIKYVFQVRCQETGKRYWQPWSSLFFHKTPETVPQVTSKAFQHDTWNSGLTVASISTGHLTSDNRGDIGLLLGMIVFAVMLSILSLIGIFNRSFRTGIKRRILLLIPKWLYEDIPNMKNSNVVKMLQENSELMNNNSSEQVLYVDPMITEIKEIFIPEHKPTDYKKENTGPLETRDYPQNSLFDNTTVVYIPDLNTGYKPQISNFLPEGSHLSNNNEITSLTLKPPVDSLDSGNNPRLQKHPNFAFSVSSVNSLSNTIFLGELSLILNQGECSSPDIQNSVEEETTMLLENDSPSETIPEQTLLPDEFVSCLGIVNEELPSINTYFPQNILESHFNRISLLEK
test_protocol: BRET competition vs TAMRA-labelled peptide, Nluc-IL23R membranes; further: test concentration or dose not given here
*1 amine or outer side, *2 acyl side, *3 side chain or, on linkers, in order; H or OH if unused. Bridges are numbered along the chain shown (N, C = ends). [ ]: non-standard residue; d: D form. 4‑Aminomethyl‑phenylacetyl = 4-aminomethyl-phenylacetyl unit, its amine closes the lactam, O=C(Cc1ccc(CN[*:1])cc1)[*:2]; 2Nal = N[C@@H](Cc1ccc2ccccc2c1)C(=O)O; AEF = NCCOc1ccc(C[C@H](N)C(=O)O)cc1; αMeL = CC(C)C[C@](C)(N)C(=O)O
measured_metric: % displacement (hIL-23R binding)

{"binder": "[4‑Aminomethyl‑phenylacetyl]SCWQC[AEF][2Nal][αMeL]E[dR]-NH2 (lactam N-10; bridge 3-6; not fully specified (bridges); printed as [4-Aminomethyl-phenylacetyl](1c)*SC(2a)WQC(2a)[Y(2-aminoethoxy)][2-Nal][2-Me-Leu]E(1c)[{d}R]-[NH2], Y = Y(2-aminoethoxy), R = D-Arg) [Ref 80]", "measured_metric": "% displacement (hIL-23R binding)", "measured_result": "98%"}
{"binder": "H-ECWLCYYRNCNCM-NH2 (linker 5-10, 2-12 via 1,3‑dithio‑propan‑2‑one, compound from Heinis et al., 2020, synthesised for comparison) [I4 (isomer 3)]", "measured_metric": "% displacement (hIL-23R binding)", "measured_result": "84%"}
{"binder": "H-DESCWQCWWLKR-NH2 (lactam 2-11; bridge 4-7; not fully specified (bridges)) [Ref 4]", "measured_metric": "% displacement (hIL-23R binding)", "measured_result": "100%"}
